- Tested on: PKAC-alpha;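 further: KINOMEscan kinase panel screen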
- Construct: gene PRKACA
- condition: concentration: 1 μM, replicates: in singlicate; n = 1

{"compound": "Cc1occc1-c1ncc(OC[C@@H](N)Cc2c[nH]c3ccccc23)cc1-c1ccc2[nH]nc(C)c2c1.O=C(O)C(F)(F)F", "assay_target": "PKAC-alpha", "unit_abbrev": "%", "%Inh": 99.8}
{"compound": "CN(C)S(=O)(=O)c1cc(-c2ccc3nccc(-c4cccc(S(N)(=O)=O)c4)c3c2)cnc1N", "assay_target": "PKAC-alpha", "unit_abbrev": "%", "%Inh": 3}
{"compound": "CN1CCN(CCCNc2nccc(-c3c(-c4ccc(F)cc4)nn4cc(C(F)(F)F)ccc34)n2)CC1", "assay_target": "PKAC-alpha", "unit_abbrev": "%", "%Inh": 0}
{"compound": "Cn1cc(-c2ccc3c(c2)CCN3C(=O)Cc2cccc(Cl)c2)c2c(N)ncnc21", "assay_target": "PKAC-alpha", "unit_abbrev": "%", "%Inh": 7}
{"compound": "COc1cc(Nc2nccc(N3CCC(NC(=O)c4cc5ccccc5s4)C3)n2)cc(OC)c1OC (stereo not drawn)", "assay_target": "PKAC-alpha", "unit_abbrev": "%", "%Inh": 18}
{"compound": "O=C(Nc1cccc(-c2nn3ccccc3c2-c2ccnc(Nc3cccc(C(F)(F)F)c3)n2)c1)c1c(F)cccc1F", "assay_target": "PKAC-alpha", "unit_abbrev": "%", "%Inh": 0}
{"compound": "O=C(Nc1cccc(-c2nn3ccccc3c2-c2ccnc(Nc3cccc(F)c3)n2)c1)c1c(F)ccc(F)c1Cl", "assay_target": "PKAC-alpha", "unit_abbrev": "%", "%Inh": 13}
{"compound": "O=c1[nH]cc(-c2ccc(N3CCOCC3)cc2)c2sc(-c3cn[nH]c3)cc12", "assay_target": "PKAC-alpha", "unit_abbrev": "%", "%Inh": 0}
{"compound": "Cl.c1ccc(-c2ccc3c(Nc4ccc5[nH]ncc5c4)ccnc3c2)nc1", "assay_target": "PKAC-alpha", "unit_abbrev": "%", "%Inh": 0}
{"compound": "Nc1ncnc2c1nc(-c1ccccc1)n2-c1ccccc1", "assay_target": "PKAC-alpha", "unit_abbrev": "%", "%Inh": 7}
{"compound": "CNC(=O)c1ccccc1Nc1nc(Nc2ccc(N3CCOCC3)cc2)ncc1Cl.Cl", "assay_target": "PKAC-alpha", "unit_abbrev": "%", "%Inh": 96.5}
{"compound": "COc1cc(Nc2nccc(-c3c(-c4cccc(NC(=O)c5c(F)cccc5F)c4)nn4ncccc34)n2)cc(OC)c1OC", "assay_target": "PKAC-alpha", "unit_abbrev": "%", "%Inh": 44}
{"compound": "C[C@@H]1CC[C@@H](C(=O)Nc2ccccc2)CN1c1cc(-c2ccc3c(N)n[nH]c3c2)nc(N)n1", "assay_target": "PKAC-alpha", "unit_abbrev": "%", "%Inh": 0}
{"compound": "COc1cc2c(cc1OCCN1CCNCC1)ncc1c3ccc(C#N)cc3[nH]c21", "assay_target": "PKAC-alpha", "unit_abbrev": "%", "%Inh": 0}
{"compound": "Cl.Cl.NCC(C(=O)Nc1cc(Br)c(-c2ccnc3[nH]ccc23)s1)c1ccccc1 (stereo not drawn)", "assay_target": "PKAC-alpha", "unit_abbrev": "%", "%Inh": 97.2}
{"compound": "COc1cccc(C2=C(Nc3ccc(Cl)c(C(=O)O)c3)C(=O)NC2=O)c1", "assay_target": "PKAC-alpha", "unit_abbrev": "%", "%Inh": 0}
{"compound": "COc1cccc(NC(=O)NC2CCN(c3ccnc(Nc4cc(OC)c(OC)c(OC)c4)n3)C2)c1 (stereo not drawn)", "assay_target": "PKAC-alpha", "unit_abbrev": "%", "%Inh": 0}
{"compound": "c1ccc(Oc2ccc(Nc3ccnc4cc(-c5ccc(CNCCN6CCOCC6)o5)ccc34)cc2)nc1", "assay_target": "PKAC-alpha", "unit_abbrev": "%", "%Inh": 0}
{"compound": "Cl.c1ccc(-c2ccc3c(Nc4ccc5[nH]ccc5c4)ccnc3c2)nc1", "assay_target": "PKAC-alpha", "unit_abbrev": "%", "%Inh": 0}
{"compound": "c1ccc(-c2cnc3nccnn23)cc1", "assay_target": "PKAC-alpha", "unit_abbrev": "%", "%Inh": 0}
{"compound": "O=C(NC1CCN(c2ccnc(Nc3ccc(F)cc3)n2)C1)c1cc2ccccc2s1 (stereo not drawn)", "assay_target": "PKAC-alpha", "unit_abbrev": "%", "%Inh": 0}
{"compound": "COc1cc(Nc2nccc(-c3c(-c4cccc(NC(=O)c5c(F)cccc5F)c4)nn4ccccc34)n2)cc(OC)c1OC", "assay_target": "PKAC-alpha", "unit_abbrev": "%", "%Inh": 0}
{"compound": "C[C@@H](Oc1cc(-n2cnc3cc(-c4ccnc(NCCS(C)(=O)=O)c4)ccc32)sc1C(N)=O)c1ccccc1Cl", "assay_target": "PKAC-alpha", "unit_abbrev": "%", "%Inh": 0}
{"compound": "Cc1ccc(F)c(C(=O)Nc2cccc(-c3nn4ccccc4c3-c3ccnc(Nc4cccc(F)c4)n3)c2)c1F", "assay_target": "PKAC-alpha", "unit_abbrev": "%", "%Inh": 13}
{"compound": "FC(F)(F)c1ccc(/C=C/c2cncnc2Nc2ccc3[nH]c(Cc4ccccc4)nc3c2)cc1", "assay_target": "PKAC-alpha", "unit_abbrev": "%", "%Inh": 0}
{"compound": "Cc1ccc(C(=O)Nc2ccc(Nc3ccnc4cc(-c5nccs5)ccc34)cc2O)cc1.Cl", "assay_target": "PKAC-alpha", "unit_abbrev": "%", "%Inh": 0}
{"compound": "Cn1cc(-c2ccc3c(c2)CCN3C(=O)Cc2cccc(F)c2)c2c(N)ncnc21", "assay_target": "PKAC-alpha", "unit_abbrev": "%", "%Inh": 0}
{"compound": "CCc1ccc(-c2ccc3c(c2)-c2c(cnn2C)S(=O)(=O)N3C)cc1", "assay_target": "PKAC-alpha", "unit_abbrev": "%", "%Inh": 0}
{"compound": "O=C(Nc1n[nH]c2nc(-c3ccc(O)cc3)ccc12)C1CC1", "assay_target": "PKAC-alpha", "unit_abbrev": "%", "%Inh": 0}
{"compound": "O=C(Nc1cccc(Oc2ccc3nc(NC(=O)C4CC4)cn3n2)c1)c1ccccc1C(F)(F)F", "assay_target": "PKAC-alpha", "unit_abbrev": "%", "%Inh": 0}
{"compound": "CC(C)(C)c1ccc2nccc(Nc3cccc(O)c3)c2c1", "assay_target": "PKAC-alpha", "unit_abbrev": "%", "%Inh": 90.5}
{"compound": "Nc1ncc(-c2cccnc2)c2scc(-c3ccc4c(c3)CCN4C(=O)Cc3ccccc3)c12", "assay_target": "PKAC-alpha", "unit_abbrev": "%", "%Inh": 31}
{"compound": "c1ccc(-c2n[nH]cc2Nc2ccnc3ccccc23)nc1", "assay_target": "PKAC-alpha", "unit_abbrev": "%", "%Inh": 0}
